assay.system: Metabotropic glutamate receptor 4 (Homo sapiens)
Sequence (Q14833 whole entry): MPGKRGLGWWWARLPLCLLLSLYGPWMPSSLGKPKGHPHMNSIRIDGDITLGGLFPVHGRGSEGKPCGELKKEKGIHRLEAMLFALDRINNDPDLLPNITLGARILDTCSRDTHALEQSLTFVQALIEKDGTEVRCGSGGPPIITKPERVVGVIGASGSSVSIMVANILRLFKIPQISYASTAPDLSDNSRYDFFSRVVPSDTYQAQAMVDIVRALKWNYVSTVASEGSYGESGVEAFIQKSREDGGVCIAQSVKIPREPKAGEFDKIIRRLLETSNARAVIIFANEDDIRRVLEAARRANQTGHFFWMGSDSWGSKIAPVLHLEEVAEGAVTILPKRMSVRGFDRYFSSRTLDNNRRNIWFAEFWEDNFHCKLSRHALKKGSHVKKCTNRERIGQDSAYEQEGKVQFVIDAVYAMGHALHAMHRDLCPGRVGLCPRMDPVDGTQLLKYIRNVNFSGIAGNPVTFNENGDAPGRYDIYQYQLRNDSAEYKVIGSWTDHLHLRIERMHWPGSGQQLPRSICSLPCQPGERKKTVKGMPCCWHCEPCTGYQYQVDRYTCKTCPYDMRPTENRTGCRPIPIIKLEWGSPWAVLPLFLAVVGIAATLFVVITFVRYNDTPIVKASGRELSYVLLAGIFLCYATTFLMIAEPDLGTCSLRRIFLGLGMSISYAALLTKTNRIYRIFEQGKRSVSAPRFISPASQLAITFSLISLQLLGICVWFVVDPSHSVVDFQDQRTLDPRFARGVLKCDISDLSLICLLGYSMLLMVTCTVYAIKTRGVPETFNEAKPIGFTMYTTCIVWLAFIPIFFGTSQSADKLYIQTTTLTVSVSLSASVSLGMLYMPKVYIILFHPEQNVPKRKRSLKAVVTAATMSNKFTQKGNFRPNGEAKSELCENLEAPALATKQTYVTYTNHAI
experiment.notes: Agonist activity at mGlu4 (unknown origin) expressed in HEK293 cells coexpressing chimeric Gq/i protein assessed as increase in intracellular calcium accumulation by Fluo-4 AM dye based fluorescence assay
Type: functional, cell-based
readout.type: pEC50
API: returns pEC50 as number; meaning -log10 of concentration in mol/L.

Consider the following illustrative entries.
>>> measured_result("CCOc1cc([C@H](O)P(=O)(O)CC[C@H](N)C(=O)O)cc([N+](=O)[O-])c1O")
5.19
>>> measured_result("N[C@@H](CCP(=O)(O)C(O)c1ccc(O)cc1)C(=O)O (some centres not stated)")
5.11
>>> measured_result("Nc1ccc(C(O)P(=O)(O)CC[C@H](N)C(=O)O)cc1 (some centres not stated)")
5.06
>>> measured_result("COc1cc([C@@H](O)P(=O)(O)CC[C@H](N)C(=O)O)cc([N+](=O)[O-])c1O")
6.14
>>> measured_result("N[C@@H](CCP(=O)(O)C(O)c1ccc([N+](=O)[O-])cc1)C(=O)O (some centres not stated)")
6.19
>>> measured_result("N[C@@H](CCP(=O)(O)C(O)c1cccnc1)C(=O)O (some centres not stated)")
4.52
>>> measured_result("CCOc1cc([C@@H](O)P(=O)(O)CC[C@H](N)C(=O)O)cc([N+](=O)[O-])c1O")
5.29
>>> measured_result("COc1cc(CP(=O)(O)CC[C@H](N)C(=O)O)cc([N+](=O)[O-])c1O")
4.72
>>> measured_result("N[C@@H](CCP(=O)(O)C(O)c1c[nH]c2ncccc12)C(=O)O (some centres not stated)")
5.47
>>> measured_result("CS(=O)(=O)c1ccc(C(O)P(=O)(O)CC[C@H](N)C(=O)O)cc1 (some centres not stated)")
4.23

Exam item: Form field: pEC50 recorded for N[C@@H](CCP(=O)(O)[C@@H](O)c1ccc(O)c([N+](=O)[O-])c1)C(=O)O with Metabotropic glutamate receptor 4 (Homo sapiens) (enter value)
Marked response: 5.35

Exam item: Form field: pEC50 recorded for COc1ccc(C(O)P(=O)(O)CC[C@H](N)C(=O)O)cc1 (some centres not stated) with Metabotropic glutamate receptor 4 (Homo sapiens) (enter value)
Marked response: 5.19

Exam item: Form field: pEC50 recorded for N[C@@H](CCP(=O)(O)C(O)c1cc(O)c(O)c([N+](=O)[O-])c1)C(=O)O (some centres not stated) with Metabotropic glutamate receptor 4 (Homo sapiens) (enter value)
Marked response: 5.37

Exam item: Form field: pEC50 recorded for CCCCCCCCNC(c1cccc([N+](=O)[O-])c1)P(=O)(O)CC[C@H](N)C(=O)O (some centres not stated) with Metabotropic glutamate receptor 4 (Homo sapiens) (enter value)
Marked response: 5.21

Exam item: Form field: pEC50 recorded for N[C@@H](CCP(=O)(O)C(O)c1ccc(O)c(C(=O)O)c1)C(=O)O (some centres not stated) with Metabotropic glutamate receptor 4 (Homo sapiens) (enter value)
Marked response: 4.80

Exam item: Form field: pEC50 recorded for N[C@@H](CCP(=O)(O)[C@@H](O)c1cccc([N+](=O)[O-])c1)C(=O)O with Metabotropic glutamate receptor 4 (Homo sapiens) (enter value)
Marked response: 6.49

Exam item: Form field: pEC50 recorded for N[C@@H](CCP(=O)(O)C(O)c1csc([N+](=O)[O-])c1)C(=O)O (some centres not stated) with Metabotropic glutamate receptor 4 (Homo sapiens) (enter value)
Marked response: 6.72

----------
assay.system: Glutamate NMDA receptor; Grin1/Grin2a (Rattus norvegicus, UniProt P35439+Q00959)
Sequence (Q00959 whole entry, other chains not shown): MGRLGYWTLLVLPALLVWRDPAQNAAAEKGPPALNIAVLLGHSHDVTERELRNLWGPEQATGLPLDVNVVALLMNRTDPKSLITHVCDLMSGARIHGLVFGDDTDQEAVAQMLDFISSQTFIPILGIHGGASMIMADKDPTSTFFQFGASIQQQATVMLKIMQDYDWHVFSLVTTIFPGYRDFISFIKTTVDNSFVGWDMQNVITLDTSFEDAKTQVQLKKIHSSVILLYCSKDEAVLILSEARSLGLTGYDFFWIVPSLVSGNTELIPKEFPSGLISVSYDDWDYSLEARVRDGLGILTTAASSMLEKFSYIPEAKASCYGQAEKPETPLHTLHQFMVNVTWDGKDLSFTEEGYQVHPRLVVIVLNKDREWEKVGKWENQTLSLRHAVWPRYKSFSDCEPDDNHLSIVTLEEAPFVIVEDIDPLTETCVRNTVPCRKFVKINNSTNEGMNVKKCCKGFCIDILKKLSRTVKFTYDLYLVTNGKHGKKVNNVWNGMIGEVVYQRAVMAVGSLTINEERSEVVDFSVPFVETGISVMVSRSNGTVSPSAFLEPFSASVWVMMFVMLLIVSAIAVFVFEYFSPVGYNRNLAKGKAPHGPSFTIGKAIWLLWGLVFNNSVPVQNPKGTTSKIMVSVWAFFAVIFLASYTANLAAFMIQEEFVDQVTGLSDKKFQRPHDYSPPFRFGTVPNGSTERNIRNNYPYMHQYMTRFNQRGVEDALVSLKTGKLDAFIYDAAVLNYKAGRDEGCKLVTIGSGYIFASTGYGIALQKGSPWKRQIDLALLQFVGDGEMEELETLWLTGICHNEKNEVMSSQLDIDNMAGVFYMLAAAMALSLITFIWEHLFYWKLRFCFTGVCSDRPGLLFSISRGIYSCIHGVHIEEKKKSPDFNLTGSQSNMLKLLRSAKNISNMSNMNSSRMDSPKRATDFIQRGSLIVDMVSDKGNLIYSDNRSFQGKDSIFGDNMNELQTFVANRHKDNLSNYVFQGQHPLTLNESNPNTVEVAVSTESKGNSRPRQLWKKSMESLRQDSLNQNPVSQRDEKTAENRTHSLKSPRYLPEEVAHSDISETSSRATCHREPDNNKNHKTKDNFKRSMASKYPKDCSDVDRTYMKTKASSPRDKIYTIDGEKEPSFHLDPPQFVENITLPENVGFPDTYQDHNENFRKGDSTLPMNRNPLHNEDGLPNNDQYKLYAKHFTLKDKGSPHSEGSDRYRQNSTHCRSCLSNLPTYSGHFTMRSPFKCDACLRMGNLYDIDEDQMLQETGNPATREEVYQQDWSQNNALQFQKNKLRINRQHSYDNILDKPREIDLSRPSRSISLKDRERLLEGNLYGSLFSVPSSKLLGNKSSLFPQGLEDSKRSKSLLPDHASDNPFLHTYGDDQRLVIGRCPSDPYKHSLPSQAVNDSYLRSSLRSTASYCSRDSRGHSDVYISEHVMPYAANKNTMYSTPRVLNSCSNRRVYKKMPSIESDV
experiment.notes: Antagonist activity at rat GluN1a/GluN2A receptors expressed in Xenopus laevis oocytes assessed as inhibition of L-glutamate/[…] induced current amplitude at holding potential of -60 mV by […]
readout.type: IC50
Answer by giving the amount and then stating its unit.

Exam item: Form field: IC50 recorded for COc1cc(C(O)P(=O)(O)CC[C@H](N)C(=O)O)cc([N+](=O)[O-])c1O (mixture of isomers) with Glutamate NMDA receptor; Grin1/Grin2a (Rattus norvegicus, UniProt P35439+Q00959) (enter value)
Marked response: 1100 µM

----------
assay.system: Metabotropic glutamate receptor 4 (Rattus norvegicus, UniProt P31423)
Sequence (P31423 whole entry): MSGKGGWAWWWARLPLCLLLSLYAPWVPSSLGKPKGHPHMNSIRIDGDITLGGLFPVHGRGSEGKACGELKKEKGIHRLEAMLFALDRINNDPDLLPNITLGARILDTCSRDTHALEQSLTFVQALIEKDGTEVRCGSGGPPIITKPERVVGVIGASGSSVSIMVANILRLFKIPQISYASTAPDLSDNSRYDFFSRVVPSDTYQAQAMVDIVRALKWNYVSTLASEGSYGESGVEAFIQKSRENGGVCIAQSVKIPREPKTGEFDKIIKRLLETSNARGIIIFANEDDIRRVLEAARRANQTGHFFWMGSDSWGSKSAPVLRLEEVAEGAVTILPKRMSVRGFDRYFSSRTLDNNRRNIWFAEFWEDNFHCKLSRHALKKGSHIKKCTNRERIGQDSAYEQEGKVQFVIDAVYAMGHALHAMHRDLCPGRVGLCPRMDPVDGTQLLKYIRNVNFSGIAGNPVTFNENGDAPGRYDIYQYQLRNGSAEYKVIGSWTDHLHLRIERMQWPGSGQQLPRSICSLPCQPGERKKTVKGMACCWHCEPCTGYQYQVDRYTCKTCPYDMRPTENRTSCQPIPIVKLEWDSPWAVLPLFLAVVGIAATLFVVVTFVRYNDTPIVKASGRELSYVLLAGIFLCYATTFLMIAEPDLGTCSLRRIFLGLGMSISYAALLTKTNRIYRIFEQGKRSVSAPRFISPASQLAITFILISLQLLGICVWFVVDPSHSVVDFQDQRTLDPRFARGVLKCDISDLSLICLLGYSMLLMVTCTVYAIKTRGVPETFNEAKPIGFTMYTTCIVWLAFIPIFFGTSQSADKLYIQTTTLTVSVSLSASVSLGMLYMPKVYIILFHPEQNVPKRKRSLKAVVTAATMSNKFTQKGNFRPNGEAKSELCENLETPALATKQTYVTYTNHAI
experiment.notes: Agonist activity at mGlu4 in Wistar rat striatum assessed as decrease in corticostriatal glutamatergic excitatory post-synaptic potential by whole cell patch clamp assay
readout.type: EC50 (µM)
Lab book: enter the figure in µM, no units written.

Exam item: Entry under review: N[C@@H](CCP(=O)(O)C(O)c1csc([N+](=O)[O-])c1)C(=O)O (stereo partly specified) . Reported EC50?
Marked response: 9.32

----------
assay.system: Metabotropic glutamate receptor 4 (Rattus norvegicus, UniProt P31423)
experiment.notes: Agonist activity at mGlu4 in Wistar rat striatum assessed as decrease in striatal GABAergic inhibitory post-synaptic potential by whole cell patch clamp assay
readout.type: pEC50
API: returns pEC50 as number; meaning -log10 of concentration in mol/L.

Exam item: Form field: pEC50 recorded for N[C@@H](CCP(=O)(O)C(O)c1csc([N+](=O)[O-])c1)C(=O)O (stereo partly specified) with Metabotropic glutamate receptor 4 (Rattus norvegicus, UniProt P31423) (enter value)
Marked response: 6.49

----------
assay.system: Metabotropic glutamate receptor 8 (Homo sapiens, UniProt O00222)
Sequence (O00222 whole entry): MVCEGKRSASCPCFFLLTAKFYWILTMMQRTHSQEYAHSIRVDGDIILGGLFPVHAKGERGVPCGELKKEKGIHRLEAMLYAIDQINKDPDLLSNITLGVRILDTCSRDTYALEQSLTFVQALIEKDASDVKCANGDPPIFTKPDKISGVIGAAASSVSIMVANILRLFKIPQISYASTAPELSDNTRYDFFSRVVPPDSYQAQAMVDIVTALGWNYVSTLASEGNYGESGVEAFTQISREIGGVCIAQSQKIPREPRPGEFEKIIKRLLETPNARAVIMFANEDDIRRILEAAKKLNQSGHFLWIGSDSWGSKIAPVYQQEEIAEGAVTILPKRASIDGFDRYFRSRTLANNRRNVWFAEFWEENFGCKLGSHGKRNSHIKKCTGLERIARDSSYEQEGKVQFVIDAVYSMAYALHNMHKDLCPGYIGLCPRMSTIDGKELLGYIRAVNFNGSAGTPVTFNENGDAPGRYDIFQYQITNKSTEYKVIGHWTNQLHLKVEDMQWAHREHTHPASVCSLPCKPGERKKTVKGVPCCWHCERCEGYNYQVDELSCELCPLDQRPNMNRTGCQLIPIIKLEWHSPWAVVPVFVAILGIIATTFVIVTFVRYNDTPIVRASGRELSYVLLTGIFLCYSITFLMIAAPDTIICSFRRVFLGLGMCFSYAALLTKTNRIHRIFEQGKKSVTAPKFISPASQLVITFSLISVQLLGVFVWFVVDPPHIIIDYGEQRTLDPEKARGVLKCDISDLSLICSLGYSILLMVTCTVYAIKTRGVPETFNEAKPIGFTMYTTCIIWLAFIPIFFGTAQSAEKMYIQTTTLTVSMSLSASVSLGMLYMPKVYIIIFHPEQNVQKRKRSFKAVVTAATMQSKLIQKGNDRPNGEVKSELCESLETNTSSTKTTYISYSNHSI
experiment.notes: Agonist activity at mGlu8 (unknown origin) expressed in HEK293 cells coexpressing chimeric Gq/i protein assessed as increase in intracellular calcium accumulation by Fluo-4 AM dye based fluorescence assay
Assay type: functional, cell-based
readout.type: log10(EC50) (log10 of the value in µM)
The figures below represent log10 of EC50, where EC50 is stated in µM.

Consider the following illustrative entries.
>>> measured_result("COc1ccc(C(O)P(=O)(O)CC[C@H](N)C(=O)O)cc1 (some centres undefined)")
1.79
>>> measured_result("COc1ccc([C@H](O)P(=O)(O)CC[C@H](N)C(=O)O)cc1[N+](=O)[O-]")
0.34
>>> measured_result("N[C@@H](CCP(=O)(O)C(NCc1cccc2ccccc12)c1cccc([N+](=O)[O-])c1)C(=O)O (some centres undefined)")
1.55
>>> measured_result("COc1ccc([C@@H](O)P(=O)(O)CC[C@H](N)C(=O)O)cc1[N+](=O)[O-]")
0.40
>>> measured_result("N[C@@H](CCP(=O)(O)C(O)c1cc(F)c(O)c([N+](=O)[O-])c1)C(=O)O (some centres undefined)")
1.37
>>> measured_result("N[C@@H](CCP(=O)(O)C(O)c1ccncc1)C(=O)O (some centres undefined)")
1.42
>>> measured_result("CCOc1cc([C@H](O)P(=O)(O)CC[C@H](N)C(=O)O)cc([N+](=O)[O-])c1O")
0.81

// next entry
Exam item: Form field: log10(EC50) recorded for CCCCCCCCNC(c1cccc([N+](=O)[O-])c1)P(=O)(O)CC[C@H](N)C(=O)O (some centres undefined) with Metabotropic glutamate receptor 8 (Homo sapiens, UniProt O00222) (enter value)
Marked response: 1.58

----------
assay.system: Metabotropic glutamate receptor 6 (Homo sapiens)
Sequence (O15303 whole entry): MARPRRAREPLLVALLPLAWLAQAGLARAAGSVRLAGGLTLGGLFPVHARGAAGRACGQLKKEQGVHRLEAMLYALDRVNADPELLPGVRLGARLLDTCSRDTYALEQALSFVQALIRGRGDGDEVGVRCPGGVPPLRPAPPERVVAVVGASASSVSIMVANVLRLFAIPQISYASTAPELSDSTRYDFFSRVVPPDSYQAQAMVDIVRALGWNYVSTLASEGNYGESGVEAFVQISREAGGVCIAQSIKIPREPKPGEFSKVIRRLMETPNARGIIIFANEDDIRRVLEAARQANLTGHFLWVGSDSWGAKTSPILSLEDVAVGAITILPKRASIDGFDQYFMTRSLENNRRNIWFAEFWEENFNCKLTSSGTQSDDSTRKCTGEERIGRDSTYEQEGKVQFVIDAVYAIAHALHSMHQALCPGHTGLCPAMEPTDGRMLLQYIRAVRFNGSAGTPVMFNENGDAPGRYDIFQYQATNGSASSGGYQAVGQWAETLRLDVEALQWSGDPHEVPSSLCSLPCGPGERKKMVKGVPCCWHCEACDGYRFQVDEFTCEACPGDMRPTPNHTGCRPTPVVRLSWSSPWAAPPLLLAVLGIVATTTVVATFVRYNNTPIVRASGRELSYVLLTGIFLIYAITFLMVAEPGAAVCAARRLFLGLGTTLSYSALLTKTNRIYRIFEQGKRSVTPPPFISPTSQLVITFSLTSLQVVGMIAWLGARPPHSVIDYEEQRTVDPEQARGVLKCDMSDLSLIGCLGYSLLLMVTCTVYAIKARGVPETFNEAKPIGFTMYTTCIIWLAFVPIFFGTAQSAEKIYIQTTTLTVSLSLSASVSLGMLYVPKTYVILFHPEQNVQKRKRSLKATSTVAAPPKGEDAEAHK
experiment.notes: Agonist activity at mGlu6 (unknown origin) expressed in HEK293 cells coexpressing chimeric Gq/i protein assessed as [3H]inositol phosphate accumulation after 30 mins by scintillation and luminescence counting method
Assay type: functional, cell-based
Please note: EC50 exactly at 10 µM is Not satisfied. Only values below 10 µM get Satisfied.

>>> group_label("N[C@@H](CCP(=O)(O)CCC(=O)O)C(=O)O")
"Not satisfied"
>>> group_label("N[C@@H](CCP(=O)(O)C(O)c1cccc(C(=O)O)c1)C(=O)O (stereo not given in full)")
"Not satisfied"
>>> group_label("Cc1ccc(C(O)P(=O)(O)CC[C@H](N)C(=O)O)cc1[N+](=O)[O-] (stereo not given in full)")
"Not satisfied"
>>> group_label("N[C@@H](CCP(=O)(O)C(O)c1csc([N+](=O)[O-])c1)C(=O)O (stereo not given in full)")
"Satisfied"
>>> group_label("N[C@@H](CCP(=O)(O)C(O)c1ccc([N+](=O)[O-])o1)C(=O)O (stereo not given in full)")
"Satisfied"

Exam item: Given the entry N[C@@H](CCP(=O)(O)C(O)c1ccc(C(F)(F)F)c([N+](=O)[O-])c1)C(=O)O (stereo not given in full) , would its reported EC50 be below 10 µM?
Marked response: Satisfied

Exam item: Given the entry N[C@@H](CCP(=O)(O)C(O)c1ccc(F)c([N+](=O)[O-])c1)C(=O)O (stereo not given in full) , would its reported EC50 be below 10 µM?
Marked response: Not satisfied

Exam item: Given the entry N[C@@H](CCP(=O)(O)O)C(=O)O , would its reported EC50 be below 10 µM?
Marked response: Satisfied

Exam item: Given the entry N[C@@H](CCP(=O)(O)C(O)c1ccc(C(=O)O)cc1)C(=O)O (stereo not given in full) , would its reported EC50 be below 10 µM?
Marked response: Not satisfied

Exam item: Given the entry N[C@@]1(C(=O)O)C[C@H](C(=O)O)[C@H](C(=O)O)C1 , would its reported EC50 be below 10 µM?
Marked response: Not satisfied
